Source of measurements: PubChem BioAssay AID793

Quick list: inhibition per entry.
target: Neuropeptide Y receptor type 2 (Homo sapiens); assay: blockers of human neuropeptide Y Y2 receptor – cell-based, primary screen (AID 793); conditions: NPY-Y2 expressing cells, antagonist mode; at 2.7 µM; active compounds read high;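 also: 0% = vehicle with agonist challenge and 100% = reference antagonist with challenge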
Out of some 140,000 compounds screened, about 1,400 (1%) were called active. The full list was thinned out, with actives kept by preference.
Please give a number only; it is taken to be in %.

Check out these entries, answers already filled in.
{"columns": ["Compound", "Measured Value"],
 "data": [
  ["O=C(/C=C/c1ccc(F)cc1)NC(=S)NNC(=O)c1cccnc1", 2.46],
  ["COc1ccc(NS(=O)(=O)c2ccc(NC(=S)NC(=O)/C=C/c3ccc(C)cc3)cc2)nn1", 3.45],
  ["Nc1nonc1-c1nc2ccccc2n1Cc1ccc(F)cc1", 18.1],
  ["COCCNC(=O)C(c1ccc(C)o1)N(Cc1ccccc1)C(=O)Cn1nnc2ccccc21 (stereo not drawn)", 2.71],
  ["COc1ccc(NC(=O)/C(Cl)=C(/Cl)S(=O)Cc2ccc(C)cc2)cn1 (stereo not drawn)", 52],
  ["COc1cc(OC)c(NC(=O)c2ccc(Br)o2)cc1Cl", -1.32],
  ["CCN1CCN(c2c(Cl)cccc2NC(=O)c2ccc(Br)o2)CC1", 31.1],
  ["Cc1cc(C)n(CC(O)CN(c2ccccc2)S(=O)(=O)c2ccc3ccccc3c2)n1 (stereo not drawn)", -0.03],
  ["Cc1cc(C)nc(-n2ncc3c2CC(c2ccc(C(C)C)cc2)CC3=O)n1 (stereo not drawn)", 24.9],
  ["COc1cccc2c(O)cc(=O)n(C)c12", 1.18]
]}

Documented inhibition of CCCC(C)C(=O)OCC(=O)Nc1c(Br)cc(C)cc1Br (stereo not drawn) : 3.68
